Some binders, each annotated with its measured IC50.
Biological target: full-length beta-Catenin (Uniprot ID P35222) (Homo sapiens (Human)) (UniProt P35222)
Sequence (P35222 whole entry): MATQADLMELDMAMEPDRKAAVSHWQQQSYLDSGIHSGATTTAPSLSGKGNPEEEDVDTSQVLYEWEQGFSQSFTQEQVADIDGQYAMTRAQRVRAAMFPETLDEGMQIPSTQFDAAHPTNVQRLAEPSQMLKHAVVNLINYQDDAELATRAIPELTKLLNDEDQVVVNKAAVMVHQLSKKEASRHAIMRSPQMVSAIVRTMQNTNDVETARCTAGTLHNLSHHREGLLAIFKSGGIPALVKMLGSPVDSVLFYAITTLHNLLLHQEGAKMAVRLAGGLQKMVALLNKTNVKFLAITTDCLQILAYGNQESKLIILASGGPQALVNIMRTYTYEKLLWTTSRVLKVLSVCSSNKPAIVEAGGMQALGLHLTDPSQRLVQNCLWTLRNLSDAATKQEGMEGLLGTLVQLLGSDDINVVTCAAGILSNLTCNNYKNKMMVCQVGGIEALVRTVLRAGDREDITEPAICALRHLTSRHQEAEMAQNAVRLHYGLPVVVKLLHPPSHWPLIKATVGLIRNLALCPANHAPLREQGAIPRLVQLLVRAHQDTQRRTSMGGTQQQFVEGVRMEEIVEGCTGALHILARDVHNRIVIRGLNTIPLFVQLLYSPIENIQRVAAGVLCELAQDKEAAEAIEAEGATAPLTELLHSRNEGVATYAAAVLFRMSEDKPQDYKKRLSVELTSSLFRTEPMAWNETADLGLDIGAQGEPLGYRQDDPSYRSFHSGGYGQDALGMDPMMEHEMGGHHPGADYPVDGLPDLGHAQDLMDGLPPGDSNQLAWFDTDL
Experiment: fluorescence polarization competition; 10 nM full-length beta-catenin, competitor 10 nM 5FAM-TCF4(10-53)
Starred links: 1 amine or outer side, 2 acyl side, 3 side chain; linkers in the order of their positions; H or OH if unused. Positions of bridges follow the written chain, without caps; N, C: chain ends. Non-standard residues stand in square brackets, D forms with d. PyrS2 = (S)-3-amino-1-((pent-4-en-1-yloxy)carbonyl)pyrrolidine-3-carboxylic acid, C=CCCCOC(=O)N1CC[C@@](N[*:1])(C(=O)[*:2])C1; MorphAsn = (S)-2-amino-4-morpholino-4-oxobutanoic acid, O=C(C[C@H](N[*:1])C(=O)[*:2])N1CCOCC1; B5 = 2-amino-2-(pent-4-en-1-yl)hept-6-enoic acid, C=CCCCC(CCCC=C)(N[*:1])C(=O)[*:2]; Me2Asn = listed as N4-methyl-L-asparagine, CNC(=O)C[C@H](N[*:1])C(=O)[*:2]; MeAsn = N4-methyl-L-asparagine, CNC(=O)C[C@H](N[*:1])C(=O)[*:2]; Bta = N[C@@H](Cc1csc2ccccc12)C(=O)O; αAllylPro = C=CC[C@@]1(C(=O)O)CCCN1; tBuAla = CC(C)(C)C[C@H](N)C(=O)O; 3Thi = N[C@@H](Cc1ccsc1)C(=O)O; Cha = N[C@@H](CC1CCCCC1)C(=O)O; Aib = CC(C)(N)C(=O)O
Reported metric: IC50 (nM)

INSERT INTO results (binder, recorded_measurement) VALUES
  ('Ac-[αAllylPro]N[Cha][B5]DQ[Me2Gln]AFL[PyrS2]F[Bta][MorphAsn]-NH2 (staple 1-4, 4-11) [I-2501]', 154),
  ('Ac-[αAllylPro]D[tBuAla][B5]NT[Aib]AFN[PyrS2][3Thi][Bta][MeAsn]-NH2 (staple 1-4, 4-11) [I-2495]', 95),
  ('Ac-[αAllylPro]D[tBuAla][B5]NT[Aib]AF[Me2Asn][PyrS2][3Thi][Bta]N-NH2 (staple 1-4, 4-11) [I-2496]', 106);
